System: P. falciparum asexual blood stages (PfABS), strain W2
Type: cell-based, Plasmodium falciparum
CONDITION_SUMMARY: Plasmodium falciparum, W2, read-out: PfABS pEC50 (±S.D.) (converted)
MEASUREMENT_LABEL: EC50 (nM)

Consider the reported EC50 for these molecules:
{"columns": ["MOLECULE", "MEASURED_ON", "MEASUREMENT_LABEL", "VALUE_OBSERVED"],
 "data": [
  ["C[C@@H]1CC[C@H]2[C@@H](C)C(=O)O[C@@H]3O[C@@]4(C)CC[C@@H]1[C@]32OO4 [artemisinin]", "P. falciparum asexual blood stages (PfABS), strain W2", "EC50", 3.39],
  ["C[C@H]1[C@@H](O)O[C@@H]2O[C@@]3(C)CC[C@H]4[C@H](C)CC[C@@H]1[C@@]24OO3 [DHA, dihydroartemisinin]", "P. falciparum asexual blood stages (PfABS), strain W2", "EC50", 0.871]
]}

(1) C[C@H]1[C@H](OC(=O)CCC(=O)O)O[C@@H]2O[C@@]3(C)CC[C@H]4[C@H](C)CC[C@@H]1[C@@]24OO3 [artesunate]
(2) COc1ccc(C[C@H](N)C(=O)N[C@H]2[C@@H](O)[C@H](n3cnc4c(N(C)C)ncnc43)O[C@@H]2CO)cc1 [puromycin]
Request: Which value of EC50 is numerically greater: that of 1 or that of 2 ? Give the label under which the chosen entry appears.
Response: 2
(2: 46.8 nM, 1: 1.12 nM)

Where do these numbers come from? They come from paper PMC9247344.
